Tested on: A549/ATCC NSCLC
Assay: NCI-60 one-dose screen, 48 h
Details: 10 µM unless noted
Experimental: Growth inhibition of the A549/ATCC human Non-Small Cell Lung tumor cell line is measured as a screen for anti-cancer activity. Cells are grown in 96 well plates and exposed to the test compound for 48 hours. Compounds are tested at a single concentration, which is 10^-5 M for most compounds. The reported endpoint is percent growth (GI% or GIPRCNT), where numbers from 0 - 100% represent growth inhibition, and numbers from -100% - 0 represent cell death. […]
This is part of a sample that, as a whole, favours compounds with a hit. Of some 83,000 tested, about 20% had one in any assay. Active and inactive are the calls of the source. The calls were made as follows: active = growth percent below 10; inactive = the rest.
Possible outcomes: active, inactive

1. CCOc1ccc(C(=O)Nc2ncc(Cc3ccc(F)cc3)s2)cc1
inactive
2. Nc1ccccc1NC(=O)c1ccc(NC(=O)C/C=C/c2cccnc2)cc1
inactive
3. NS(=O)(=O)c1ccc(Nc2cc(-c3ccccc3)nc(SCC(=O)c3ccccc3)n2)cc1
inactive
4. CCOc1ccc(NC2=C(Cl)C(=O)c3nc(C)ccc3C2=O)cc1
inactive
5. O=C(CSc1nc2ccccc2c(=O)n1-c1ccccc1)Nc1cccc(C(=O)/C=C/c2ccccc2Cl)c1
inactive
6. O=C1[C@H]2Cc3c([nH]c4ccccc34)[C@@H](c3ccc(Cl)cc3)N2C(=O)CN1C1CCN(Cc2ccccc2)CC1
inactive
7. CCn1c(SCC(=O)Nc2cccc(C(=O)/C=C/c3ccc(C)cc3)c2)nc2ccccc2c1=O
inactive
8. O=C(CNc1nc(-c2cccc([N+](=O)[O-])c2)cs1)Nc1cccc([N+](=O)[O-])c1
active
9. Cc1ccc(C(=O)NN2C(=O)/C(=C/C=C/c3ccco3)SC2=S)cc1
inactive
10. O=C(NNc1nc2cc(F)ccc2n2cccc12)c1ccncn1
inactive
11. NC(N)=Nc1ccc(Oc2cccc(Nc3ccc(Cl)c(C(F)(F)F)c3)c2)cn1
active
12. CC(C)(O)c1cncc(-c2ccc3ncnc(NCc4ccccc4)c3c2)c1
inactive
13. O=C(Nc1ccc2c(ccn2Cc2ccccn2)c1)c1cnccn1
inactive
14. CCOC(=O)c1c(N)c(C#N)cn1-c1cc(OC)c(OC)c(OC)c1
inactive
15. NS(=O)(=O)c1ccc(Nc2nc(N/N=C/c3c[nH]c4ccccc34)nc(Nc3ccccc3)n2)cc1
inactive
16. CC(C)c1ccc(NCc2cn(-c3ccc(C(=O)O)cc3)nc2-c2cc(C(F)(F)F)cc(C(F)(F)F)c2)cc1
inactive
17. CC[C@@H](CO)Nc1ccc2ncc(C#Cc3cncc(C(=O)Nc4ccc(CN5CCN(C)CC5)c(C(F)(F)F)c4)c3)n2n1
active
18. Clc1ccc(N/N=c2/oc3ccccc3cc2-c2cc3ccccc3[nH]2)cc1
inactive
19. COc1ccc2[nH]cc(-c3csc4nc(-c5ccccc5)cn34)c2c1
inactive
20. Cc1nn(-c2ccccc2)c2ncnc(N/N=C/c3ccccc3O)c12
inactive
21. CCO/C=N/C1=C(C#N)C(c2ccc(Cl)cc2)c2sc3c(CC)cccc3c2O1 (stereo not drawn)
inactive
22. COc1ccc(NC(=O)Nc2ccc3c(ccn3C(=O)c3cccc(F)c3)c2)cc1
inactive
23. Cc1cc(C)c2sc(=O)n(Cc3nnc(SCCC(=O)O)o3)c2n1
inactive
24. Cc1ccc(NC(=O)c2ccc(CN3CCOCC3)c(C(F)(F)F)c2)cc1Oc1ccc(-c2[nH]nc3ncnc(N)c23)cc1
inactive
25. O=C(CSc1nnc(-c2ccc3nc(-c4ccccc4)[nH]c3c2)o1)Nc1ccc(C(=O)/C=C/c2ccccc2)cc1
inactive
26. CCNC(=O)Oc1ccc(/C(=C(/C)c2ccccc2)c2ccc(OCCN3CCCCCC3)cc2)cc1
inactive
27. CC1(C)CC[C@]2(C(=O)N3CCOCC3)CC[C@]3(C)C(=CC[C@@H]4[C@@]5(C)C/C(=C/c6ccccn6)C(=O)C(C)(C)[C@@H]5CC[C@]43C)[C@@H]2C1
inactive
28. Clc1cccc(/C=N/Nc2nc(N/N=C/c3cccc(Cl)c3Cl)nc(N3CCCCC3)n2)c1Cl
inactive
29. NC(N)=Nc1ccc(Oc2cccc(Nc3ccc(Br)c(C(F)(F)F)c3)c2)cn1
active
30. CCO/C=N/C1=C(C#N)C(c2ccc(Cl)cc2)c2sc3c(C)cccc3c2O1 (stereo not drawn)
inactive
31. O=S(=O)(NCCNc1nccc(-n2cnc3ccccc32)n1)c1ccc(C(F)(F)F)cc1
inactive
32. COc1ccccc1N1CCN(C2=CC(=O)C(C)=C(C)C2=O)CC1
inactive
33. C[C@@H](Nc1ncnc2ccc(-c3cnc(Cl)c(NS(C)(=O)=O)c3)cc12)c1ccccc1
inactive
34. Cn1ccnc1C(=O)/C=C/c1ccc(CNC(=O)c2ccc(S(F)(F)(F)(F)F)cc2)cc1
inactive
35. CCC(CC)N1C(=O)/C(=c2\sc3n(c2=O)NC2C(N=3)N(CC)C(=O)N2CC)c2ccccc21 (stereo not drawn)
inactive
36. COc1ccc(-n2c(/C=C3\C(=O)Nc4ccccc43)ccc2CO)cc1
inactive
37. Cn1cc(-c2cc(N)n3nc(-c4cn(C)c5ccccc45)cc3n2)c2ccccc21
inactive
38. CC(=O)N1N=C(c2cccc(-n3cccc3)c2)CC1c1cccc(F)c1 (stereo not drawn)
inactive

Attribution: PubChem BioAssay (NCI)
